Ref: PubChem BioAssay

# protocol_details: small-molecule microarray binders of probe aDKK1, primary screen, biochemical, biotinylated probe, 635/667 nm fluorescence (AID 1099);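 further: score merges 667nm spot fluorescence with signal to noise across triplicate slides; reference of the scale not given here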
# condition_info: higher = more signal
For each of the molecules below, state its composite z-score.
One number for each entry.

Solved entries (count: 5):
- molecule: "C=CC[C@]1(C(=O)N2CCCCC2)COC(c2ccc(OCCCO)cc2)=N1"
  test_value: -0.0336
- molecule: "CCCNC(=O)[C@@]1(Sc2ccc(C)cc2)CC(=O)N(Cc2cc(C(F)(F)F)cc(C(F)(F)F)c2)[C@@H]1c1ccc(CO)cc1I"
  test_value: 0.832
- molecule: "O=C1c2ccccc2C(=O)c2cc([C@H]3Oc4ccccc4S(=O)(=O)N4CCC[C@@H]34)ccc21"
  test_value: -0.108
- molecule: "NCCCCCNC(=O)[C@H]1C[C@H]2C(=O)NCC(=O)N2[C@H]1c1ccc(O)cc1"
  test_value: 0.154
- molecule: "O=C1O[C@H](c2ccccc2)[C@H](c2ccccc2)N2[C@H]1[C@@H](C(=O)Nc1nc3ccccc3s1)[C@]1(C(=O)Nc3ccc(C#CCCO)cc31)[C@H]2c1ccccc1OCCO"
  test_value: 0.676

Take each entry in turn and give its composite z-score.
1. O=c1n(-c2ccccc2)c(=O)n2n1CC(COc1ccccc1)=C1[C@@H](CCc3ccccc3)OB(O)C[C@@H]12
2. COCCOC(=O)N1C(=O)[C@@]2(c3cc(C#CC4(O)CCCCCC4)ccc31)[C@H](C(=O)NC[C@H](O)c1ccccc1)[C@H]1C(=O)O[C@H](c3ccccc3)[C@H](c3ccccc3)N1[C@@H]2c1ccccc1OCCO
3. CCCNC(=O)[C@@H]1c2ccccc2C(=O)N(Cc2cc(C(F)(F)F)cc(C(F)(F)F)c2)[C@H]1c1ccc(CO)cc1
4. COCCOC(=O)N1C(=O)[C@@]2(c3cc(C#CC4(O)CCCCCC4)ccc31)[C@H](c1ccccc1OCCO)N1[C@H](c3ccccc3)[C@H](c3ccccc3)OC(=O)[C@H]1[C@@H]2C(=O)Nc1nc2ccccc2s1
5. O=C(N1CCCCC1)[C@@]1(Cc2ccccc2)N=C(c2ccc(OCCCO)cc2)O[C@H]1c1ccccc1
6. C=C(C(=O)CC[C@@H](OC(C)=O)c1ccccc1OCCO)C(C)C
7. CC(CO)N1C(=O)[C@@H]2C3C(=O)OCCC/C=C\[C@H]3OC23C=CCN(Cc2ccccc2)C(=O)[C@@H]13 (stereo partly specified)
8. CC(C)C(CO)N1C(=O)[C@@H]2C3C(=O)OCCC/C=C\[C@H]3OC23C=CCN(C(C)C)C(=O)[C@@H]13 (stereo partly specified)

Return:
[-0.178, 0.145, 0.829, 0.55, 1.26, -0.416, -0.206, -0.191]

Each molecule below has a recorded value; state its composite z-score.
1. COc1ccc(C#Cc2ccc3c(c2)[C@]2(C(=O)N3)[C@H](c3ccc(O)cc3)N3[C@H](c4ccccc4)[C@H](c4ccccc4)OC(=O)[C@H]3[C@@H]2C(N)=O)cc1
2. Cc1ccc(S[C@]2(C(=O)NCCN3CCOCC3)CC(=O)N(Cc3cc(C(F)(F)F)cc(C(F)(F)F)c3)[C@@H]2c2ccc(CO)cc2)cc1

Return:
-0.0576
0.523

Enquiry: Note composite z-score for the molecule shown: `C=CCNC(=O)[C@H]1[C@@H]2C(=O)O[C@@H](c3ccccc3)[C@@H](c3ccccc3)N2[C@@H](c2ccc(OCCO)cc2)[C@]12C(=O)Nc1ccc(C#CCCO)cc12`
Return: 0.299
